- Assayed target: Rab7 GTPase wildtype (dog), GST fusion
- Run description: inhibition of fluorescent GTP loading on Rab7 – biochemical, dog Rab7, bead multiplex flow cytometry, Bodipy-FL-GTP, pyrazoline series, SAR follow-up (AID 2041)
- Run parameters: Bead-based flow cytometry, Bodipy-FL-GTP binding; Ki calculated from EC50
pKi: −log10 of the molar value.
Class condition met: pKi at least 7. Class condition not met: pKi below 7.

I'd appreciate it if you could say whether COc1ccc(C2=NN(c3cccc(F)c3)C(c3ccc(OC)cc3)C2)cc1 (stereo not drawn) has pKi at least equal to 7.
condition met

* * *

- Assayed target: Rab7 GTPase wildtype (dog), GST fusion
- Run description: inhibition of fluorescent GTP loading on Rab7 – biochemical, dog Rab7, bead multiplex flow cytometry, Bodipy-FL-GTP, pyrazoline series, SAR follow-up (AID 2041)
- Run parameters: Bead-based flow cytometry, Bodipy-FL-GTP binding; Ki calculated from EC50
Property label: log10 Ki (log10 of the value in nM)
All values: base-10 log of Ki in nM.

// worked examples, log10 Ki included
Provide log10 Ki value for the following molecule: COc1ccccc1N1N=C(c2ccccc2)CC1c1ccccc1 (configuration not stated)
2.82

Provide log10 Ki value for the following molecule: COc1ccc(C2CC(c3cccc(Cl)c3)=NN2c2ccc(S(N)(=O)=O)cc2)cc1 (configuration not stated)
1.00

Now for a further molecule.
Provide log10 Ki value for the following molecule: O=S(=O)(c1ccc(N2N=C(c3ccccc3)CC2c2ccccc2)cc1)C(F)F (configuration not stated)
1.48

Data provenance is PubChem BioAssay AID2041.
